# Test system: Echovirus
# ASSAY OVERVIEW: Inhibitory activity against Echovirus 29 using plaque reduction assay
# Type: functional, organism-based
MEASURE NAME: IC50 (nM)

SMILES DATA	IC50 / nM
C[C@@H](CCOc1ccc(-c2ccc(Cl)cc2)cc1)CCN1CCN(c2ccncc2)C1=O	1470

A = C[C@H](CCOc1ccc(-c2ccc(Cl)cc2)cc1)CCN1CCN(c2ccncc2)C1=O
B = O=C1N(CCCCCOc2ccc(-c3ccc(Cl)cc3)cc2)CCN1c1ccncc1
Exercise: Which record shows the lower IC50: the first, A , or the second, B ? Selection: enter the item's label.
Key: B
(B: 390 nM, A: 1300 nM)

====

# System: Enterovirus A71
# ASSAY OVERVIEW: Inhibitory activity against Human Enterovirus 71 (1743) B using plaque reduction assay
# Type: functional, organism-based
# MEASUREMENT PARAMETERS: Enterovirus A
MEASURE NAME: IC50 (nM)

P = C[C@@H](CCOc1ccc(-c2ccc(Cl)cc2)cc1)CCN1CCN(c2ccncc2)C1=O
Q = C[C@H](CCOc1ccc(-c2ccc(Cl)cc2)cc1)CCN1CCN(c2ccncc2)C1=O
Exercise: Lab log: flag the item ( P or Q ) with the smaller IC50 figure. # answer = label of selected item
Key: Q
(Q: 26 nM, P: 170 nM)

====

IC50 reference
# System: Coxsackievirus
# ASSAY OVERVIEW: Inhibitory activity against Coxsackievirus A24 using plaque reduction assay
# Format: functional, organism-based

SMILES DATA	IC50
C[C@@H](CCOc1ccc(-c2ccc(Cl)cc2)cc1)CCN1CCN(c2ccncc2)C1=O	> 25 µM

Would you kindly look at the next entry?
Exercise: Name the reported IC50 value associated with the compound C[C@H](CCOc1ccc(-c2ccc(Cl)cc2)cc1)CCN1CCN(c2ccncc2)C1=O
Key: > 25 µM

====

# Tested on: Enterovirus A71
# ASSAY OVERVIEW: Inhibitory activity against Human enterovirus 71 strain 4643 using plaque reduction assay
# Format: functional, organism-based
# MEASUREMENT PARAMETERS: Enterovirus A
MEASURE NAME: IC50 (nM)

SMILES DATA	IC50, nM
C[C@@H](CCOc1ccc(-c2ccc(Cl)cc2)cc1)CCN1CCN(c2ccncc2)C1=O	33
O=C1N(CCCCCOc2ccc(-c3ccc(Cl)cc3)cc2)CCN1c1ccncc1	54

I = C[C@H](CCOc1ccc(-c2ccc(Cl)cc2)cc1)CCN1CCN(c2ccncc2)C1=O
II = CC(C)(CCOc1ccc(-c2ccc(Cl)cc2)cc1)CCN1CCN(c2ccncc2)C1=O
Exercise: Could you please tell me which of these two has the higher IC50: I or II ? Answer = label.
Key: II

====

# Tested on: Coxsackievirus
# ASSAY OVERVIEW: Inhibitory activity against Coxsackievirus B4 using plaque reduction assay
# Assay type: functional, organism-based
MEASURE NAME: IC50 (nM)

SMILES DATA	TARGET OR TEST SYSTEM	IC50, nM
C[C@H](CCOc1ccc(-c2ccc(Cl)cc2)cc1)CCN1CCN(c2ccncc2)C1=O	Coxsackievirus	1250

a = C[C@@H](CCOc1ccc(-c2ccc(Cl)cc2)cc1)CCN1CCN(c2ccncc2)C1=O
b = O=C1N(CCCCCOc2ccc(-c3ccc(Cl)cc3)cc2)CCN1c1ccncc1
Exercise: Identify the entry with the smaller IC50: a or b . Could you answer with the label of the item you picked?
Key: b
(b: 1300 nM, a: 2050 nM)

====

# System: Enterovirus D68
# ASSAY OVERVIEW: Inhibitory activity against Human Enterovirus 68 using plaque reduction assay
# MEASUREMENT PARAMETERS: Enterovirus D
pIC50: −log10 of the molar value.
MEASURE NAME: pIC50

Exercise: I'm curious: which pIC50 was measured for C[C@H](CCOc1ccc(-c2ccc(Cl)cc2)cc1)CCN1CCN(c2ccncc2)C1=O tested on Enterovirus D68?
Key: < 4.60

Just for reference, ChEMBL document CHEMBL1141044 is where these values come from.
